# test-summary: collision cross section in nitrogen (drift tube, single-field); higher = larger gas-phase ion size;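 further: chemical standards at 10 µM analysed by drift tube IMS-QTOF MS in about 3.95 torr nitrogen, mean of duplicate injections differing ≤1%, mass error below 10 ppm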
# measurement-context: ion type: [M+H]; ion source: ESI; ion mode: Positive
Structures can show the parent of a compound that is named as a salt.
endpoint-name: collision cross section in nitrogen (Å²)
Give a bare numeral; the unit Å² is implied.

{"compound": "CCNc1nc(Cl)nc(NC(C)(C)C#N)n1", "display-unit": "Å²", "collision cross section in nitrogen": 155.4}
{"compound": "c1cc(CCCc2ccncc2)ccn1", "display-unit": "Å²", "collision cross section in nitrogen": 145.7}
{"compound": "COP(=S)(OC)Oc1c(Cl)cc(C)cc1Cl", "display-unit": "Å²", "collision cross section in nitrogen": 153.6}
{"compound": "N#Cc1nc(Cl)c(Cl)c(Cl)c1Cl", "display-unit": "Å²", "collision cross section in nitrogen": 142.6}

Looking up `CCCCCCCCCCCCN1CCCC1=O` , I see its collision cross section in nitrogen listed as 176.3

Looking up `C/C(=N\C#N)N(C)Cc1ccc(Cl)nc1` , I see its collision cross section in nitrogen listed as 154.6

Looking up CC(COc1ccc(Oc2ccccc2)cc1)Oc1ccccn1 (centres undefined) , I see its collision cross section in nitrogen listed as 184.3

Looking up Nc1ccc(-c2ccc(N)c(Cl)c2)cc1Cl [3,3'-Dichlorobenzidine dihydrochloride] , I see its collision cross section in nitrogen listed as 167.6

Looking up CCCCC(CC)COC(=O)c1ccc(C(=O)OCC(CC)CCCC)c(C(=O)OCC(CC)CCCC)c1 (centres undefined) [Tris(2-ethylhexyl) trimellitate] , I see its collision cross section in nitrogen listed as 256.5

FYI, the data here is from the supplement of paper PMC12317010.
